# maps each entry to its H Buff with 10 μg/mL MPA Rate
Test system: MPA bound to plasma proteins in normal human plasma (NHP)
Test: MPA enzyme immunoassay rates with releasing agents in Reagent A (NHP versus buffer), Example 2
Details: 50 mM MES buffer pH 7.1; ANS 0.25 mM, anisic acids 12.5 mM in Rgt A
Field: numeric (mA/min). Do not append units.

{"molecule": "COc1ccc(C(=O)O)cc1 [p-AA]", "H Buff with 10 μg/mL MPA Rate / mA/min": 278.3}

query: Any idea what H Buff with 10 μg/mL MPA Rate came out for COc1cccc(C(=O)O)c1 [m-AA] on MPA bound to plasma proteins in normal human plasma (NHP)?
result: 279.7

query: Any idea what H Buff with 10 μg/mL MPA Rate came out for COc1ccccc1C(=O)O [o-AA, o-methoxybenzoic acid] on MPA bound to plasma proteins in normal human plasma (NHP)?
result: 277.5

query: Any idea what H Buff with 10 μg/mL MPA Rate came out for O=S(=O)(O)c1cccc2cccc(Nc3ccccc3)c12 [ANS, 8-anilino-1-naphthalene sulfonic acid, reference compound] on MPA bound to plasma proteins in normal human plasma (NHP)?
result: 276.2
